target: T1, human PD-L1-His (Sino Biological, Cat #10084-H08H) (human, UniProt Q9NZQ7 19-238); assay: BLI (Gator), antibody on HFC probe, human PD-L1-His in solution
T1 construct: Bought protein; also called human PD-L1 ECD-His; recombinant human PD-L1-His protein; not shown: His tag
T1 sequence (Q9NZQ7 19-238): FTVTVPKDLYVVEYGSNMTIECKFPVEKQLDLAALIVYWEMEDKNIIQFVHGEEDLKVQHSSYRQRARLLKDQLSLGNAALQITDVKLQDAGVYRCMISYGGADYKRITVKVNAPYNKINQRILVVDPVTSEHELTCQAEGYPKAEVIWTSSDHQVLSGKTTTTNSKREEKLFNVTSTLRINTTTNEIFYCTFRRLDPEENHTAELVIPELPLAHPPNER
Entries and their koff values follow.
Provide the reading as a plain figure in s⁻¹.

Consider the following illustrative entries.
27A2 (antibody, human IgG1, V domains shown) VH: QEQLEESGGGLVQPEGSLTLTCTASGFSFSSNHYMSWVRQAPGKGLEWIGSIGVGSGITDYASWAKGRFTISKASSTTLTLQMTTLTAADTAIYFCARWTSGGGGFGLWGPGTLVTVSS VL: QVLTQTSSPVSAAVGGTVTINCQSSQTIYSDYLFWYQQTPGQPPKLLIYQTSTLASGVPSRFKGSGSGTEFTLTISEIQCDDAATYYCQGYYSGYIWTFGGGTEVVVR: 3.6e-05
69D10 (antibody, human IgG1, V domains shown) VH: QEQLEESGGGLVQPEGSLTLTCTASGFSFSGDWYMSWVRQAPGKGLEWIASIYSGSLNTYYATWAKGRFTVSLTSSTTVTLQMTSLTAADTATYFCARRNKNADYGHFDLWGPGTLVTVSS VL: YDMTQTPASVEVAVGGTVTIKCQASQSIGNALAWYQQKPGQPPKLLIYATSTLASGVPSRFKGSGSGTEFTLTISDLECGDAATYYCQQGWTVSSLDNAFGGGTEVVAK: 0.00653

# input for lookup
## Input Find the measured koff of 28B3 (antibody, human IgG1, V domains shown) VH: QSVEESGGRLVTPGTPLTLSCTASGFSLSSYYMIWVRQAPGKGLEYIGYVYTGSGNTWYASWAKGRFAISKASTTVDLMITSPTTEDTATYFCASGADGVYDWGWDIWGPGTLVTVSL VL: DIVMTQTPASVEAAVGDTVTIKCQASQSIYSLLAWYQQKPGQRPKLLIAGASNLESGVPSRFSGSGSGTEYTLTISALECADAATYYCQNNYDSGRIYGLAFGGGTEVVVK and report it.
## Output 7.6e-05
